Test: yeast display, Sf9 membrane polyspecificity reagent, FACS + sequencing; frameworks hold sequencing errors
measured_attribute: polyreactivity (PSR sort gate)

QVQLVESGGGLVQAGGSLRLSCAASGGTFARNAMGWYRQAPGKERELVATITRRAGNTYYADSVKGRFTISRDNAKNTVYLEMNSLKREDTAVYYCAGVATWGFYPYLIPEVGNDYWGQGTQVTVSS :: high polyreactivity
QVQLVDSGGGLVQAGGSLRLSCAASGFNFASYALGWYRPAPGKERELVAAISQSGGRTYYADSVKGRFTISRDNANNTVYLQMNSLKPEDTAVYYCAAPSYRYIYYSPGTGLGYWGQGTQVTVSS :: high polyreactivity
KVQLVESGGGLVQAGGSLRLSCAASGITFYDYDMGWYRQEHGKERELVSAITWNGGSTYYADSVKGRFTISRDNAKNTVYLQMNSLKPVDTAVYYCAAESYYIYYYWGQGTQVTVSS :: high polyreactivity

----------
Assay: yeast display, Sf9 membrane polyspecificity reagent, FACS + sequencing; frameworks hold sequencing errors
measured_attribute: polyreactivity (PSR sort gate)

Consider the following illustrative entries.
QVHLVESGGGLVQAGGSLRLCCAASGSILVSYAMGWYRQAAGKERELVAAITYTGGNTYYADSGKGRFTISRDNAKNTVYVQLNSQKPEDTAVYYCNAGWTQTSVTFDYWGQGTQVTVSS :: low polyreactivity
QVQLVESGGGLVQAGGSLLLSCAASGRTFQDNAMGWYRQAPGKERELVAAISWRGGSTNYADSVKGRFTISRDNAKNTVYLQMNSLKPEDTAVYYCTRDPRKYGKLDYWGQGTQVTVSS :: low polyreactivity
QVQLVESGGGLVQAGGSLRLSCAASGRIFSRYTMGWYRQAPGKERELVAAISSRGGSTYYADSVKGRFTISRDNAKNTVYLQMNSLKPEDTAVYYCNTPSYSGSSPYDHWGQGTQVTVSS :: high polyreactivity
QVQLGESGGGLVQAGGSLRLSCAASGFTFRIYTMGWYRQAPGKERELVAAISSRGGSTYYADSVKGRFTISRDNAKNTVYLQMNSLKPEDTAVYYCAASGRVYSSGYDYWGQGTQVTVSS :: high polyreactivity
QVQLVESGGGLVQAGGSLRLSCAASGSIFVGYAMGWYRQAPGKETELVAAISTRGGSTYYAETVKGRFTISRDNAKNTVYLQMNILKPEDNAVYYCAADYLDSTYGYVYGWDDYWGKGTQVTVSS :: low polyreactivity
QVQLAESGGGLVQAGGSLRLSCAASGSTFVAYAMGWYRQAPGKERELVAAITRSGGSTYYADSVKGRFTISRDNAKNTVYLQMNSLKPEDTAVYYCAARHYRSRDGYWGQGTQVTVSS :: high polyreactivity
QVQLVESGGGLLQAGGSLRLSCAASGRILFSYAMGWYRQAPGKERELVATISSGGRTNYADSVKGRFTISRDNAKNTVYLQMNSLKPEDTAVYYCNTEYLVWYAYDYGGQGTQVTVSS :: low polyreactivity
QVQLVESGGGLVQAGGSLRLSCAASGSIFLYYAMGWYTQAPGKERELVASISSTGSTYYADSVKGRFTISRDNAKNTVYLLINSLKPEDTGVYYCAKRRWYYYPRYSLSTQMDYWGQGTQVTVSS :: high polyreactivity
QVQLVESGGGLVQAGGSLRLSCAASGSIFPRYFMGWYRQAPGKERELVAAISQSGGSTYYADSVKGRFTISRDNAKNTVYLQMNSLKPEDTAVYYCAAEVRGWRVDYYYWGQGTQVTVSS :: high polyreactivity
QVQLVESGGGLVQAGGSLRLSCAASGLIFPKNAMGWYRQAPGKERELVAAISSSDSSTYADSVKGRFTISRDNAKNTVYLQMNSLKPEDTAVYYCAAASYNWLDWVTREYWGQGTQVTVSS :: low polyreactivity

What the record says about QVQLLESGAGLVQAGGSLRLSCAAYGSTSYDYAMGWYRQAPGKERELVAAISGSSSTTYYADSVKGRFTISRDNAKNTVYLQMNSLKPEDTAVYYCNAVTTSGYGYGYWGQGTQVTVSS : polyreactivity (PSR sort gate) is low polyreactivity

What the record says about QVQLVESVGGLVQAGGSHRLSGAASGRTLYRYGLGWYRQAPGKDRELVAVIDRGGSTNYADSVKGRFTISRDNAKNTVYLQMNSLKPEDTAVYYCAKRWTAREAWRKGMGYWGQGTKVTVSS : polyreactivity (PSR sort gate) is high polyreactivity

What the record says about QVQLVESGGGLVQAGGSLRLSCAASGFTFDYYDLGWYRQAPGKERELVAGITYSGGRTRYADSVKGRFTISRDNAKNTVYLQMNSLKPEDTSVDYCAARPGYPYRMNYWGQGTQVTVSS : polyreactivity (PSR sort gate) is low polyreactivity

----------
Assay: yeast display, Sf9 membrane polyspecificity reagent, FACS + sequencing; frameworks hold sequencing errors
measured_attribute: polyreactivity (PSR sort gate)

QVQLVESGGGLVQAGGSLRLSCAASGNTFCPYAMGWYRPAPGKERELVARISRSGSSTYYADSVKGRFTISRDNAKNTVYLQMNSLKPEDSAVYYCARGRTIRSSRTVGSWGQGTQVTVSS :: high polyreactivity
QVQLVESGGGLVQAGGSLRLSCAASGRTFWNYAMGWYRQAPGKERELVAVIRFSDVSTYYADSVKGRFTISRDNAKNTVYLQMNSLKPEDTAVYYCAAKGPRRWGSGFDYWGLGTQVTVSS :: low polyreactivity
QVQLVESGGGLVQAAGSLRLSCAASGSTFYRNAMGWYRQAPGKERELVASINNGGSTYYADSVKGRFTISRDNAKNTVYLQMNSLKPEDTAVYYCAATESWDYDYWGQGTQVTVSS :: low polyreactivity
QVQLVESGGGLVQAGGSLRLSCAASGRIFPTYTMGWYRQAPGKERELVAAIRRGGGRTYYADSVKGRFTISRDNAKNTVYLQMNSLKPEDTAVYYCAAPFYRQSLIEYDYWGQGTQVTVSS :: high polyreactivity
QVQLVESGGGLVQAGGSLRLSCAASGYTFDTNVMGWYRQEPGKERELVATITGSGGSTYYADSVKGRFTISRDNAKNTVYLEMNSLKPEDTAVYYCAAYCYRYSFHWLKRWPYDWGQGTQVTVSS :: high polyreactivity
QVQLVESGGGLVQAGGSLRLSCAASGRNITANAMGWYRQAPGKEREFVAAINVSGGSTYYADSVKGRFTISRDNAKNTVYFQMNSLKPEDTAVYYCNADYYYYDIYWWQMDYWGLGTQVTVSS :: low polyreactivity

What the record says about QVQLVESGGGLVQAGGSLRLSCAASGRIFYYNAMGWYRQAHGKERELVAAISFSDGSTYYADSVKGRFTISRDNAKNTVYLQMNSLKPEDTAVYYCAADIGYDYDYWGQGTQVTVSS : polyreactivity (PSR sort gate) is low polyreactivity

What the record says about QVQLVESGGGLVQAGGSLSLSCAASGRIFYVNAMGWYRQAPGKERELVAAISRSGSSTYYADSVKGRFTISRDNAKNTVYLQMNSLKPEDTAVYYCAARYYGRSQHHFDYWGQGTQVTVSS : polyreactivity (PSR sort gate) is high polyreactivity

What the record says about QVQLVESGGGLVQAGGSLRISCAASGRIFGANAMGWYRQAPAKERELVAAITSSGGNTYYADSVKGRFTISRDNAKNTVYLQMNCLKPEDTAVYYWSARSRWVSYNYWGQGTQVTVSS : polyreactivity (PSR sort gate) is high polyreactivity

What the record says about QVQLVESRGGLVQAGGSLRLSCAASGFTFIGYAMGWYRPEPGKERELVAPITQSGGSTFYADSVKGRFTISRENAKNTVYLQMNSLKPEDTAVDDCNAYRKFRYCGQGTQVTVSS : polyreactivity (PSR sort gate) is low polyreactivity

What the record says about QVQLVESGGGLLQAGGSHRLSCAASGRIFPAYAMGWYRQAPGKERELVASNRRGGITYADSVKGRFTISRDNAKNTVYLQMNSLKPEDTAVYYCNADYRGWGYHMDYWGQGTQVTVSS : polyreactivity (PSR sort gate) is low polyreactivity

What the record says about QVQLVESGGGLVQAGGSLRLSCAASGSTSYYYAMGWYRQAPGKERELVAAITTSGGSTYYADSVKGRFTISRDNAKNTVYLQMNSLKPEDTAVYYCATGYLYFTSYRYNYWGQGTQVTVSS : polyreactivity (PSR sort gate) is low polyreactivity

What the record says about QVQLVESGGGLVQAGGSLRLSCAASGRTFDGYSMGWYRQAPGKEREFVASINGGGSTNYADSVNGRFTISRDNAKNTVYLQMNSLKPEDTAVYYCAAESKGTWLYLYNSPHYYWGQGTQVTVSS : polyreactivity (PSR sort gate) is low polyreactivity

What the record says about QVQLVESGGGLVQAGGSLRLSCAASGSIFRNYAMGWYRQAPGKERELVAAISRSGSSTFYADSVKGRFTISRDNAKNTVYLQMNSLKPEDTAVYYCAAVDYYTLTGYRYYWGQGTQVTVSS : polyreactivity (PSR sort gate) is high polyreactivity

What the record says about QVQLEESGGGLVQAGGSLRLSCAASGRIHVYTMGWSRQAPGKERELVATITWSGTSTNYADSVKGRFTISRDNAKNTVYFQMNSLKPEDTAVYYCAADISGVLSVSNVRGFDYWGQGTQVTVSS : polyreactivity (PSR sort gate) is low polyreactivity

What the record says about QVQLVDSGGGLVQAGGSLRLSCAASGSIFGQYTMGWYRQAPGKERELVAAINSSGDSTFYADSVKGRFTISRDNAKNTVYLQMNSLKPEDTAVYFCAADPYRYYFRAYGWHREGYYWGQGTQVTVSS : polyreactivity (PSR sort gate) is low polyreactivity

The origin of these recorded values is the nanobody polyreactivity screen of Harvey et al. (2022).
